Values were extracted from patent US20260217672A1.

Measured MIC by item
Test system: Klebsiella pneumonia ATCC 43816
Assay: Minimal Inhibitory Concentration (MIC) broth dilution assay
Assay type: cell-based
Details: Klebsiella pneumoniae, ATCC43816, 20 h, read-out: MIC Klebsiella pneumoniae ATCC43816
property: MIC (µg/mL)

INSERT INTO measurements (compound, property, readout_number) VALUES
  ('NCCCNCc1cccc(C(=O)Nc2ccc(S(=O)(=O)N3CCN(c4cc(C(F)(F)F)cc(Cl)n4)CC3)cc2)n1', 'MIC', 3.8),
  ('CN=S(=O)(c1ccc(NC(=O)c2cccc(CNCCCN)c2)cc1)N1CCN(c2cc(C(F)(F)F)cc(Cl)n2)CC1 (stereo not shown)', 'MIC', 7.8),
  ('NCCCNCCc1ccc(C(=O)Nc2ccc(S(=O)(=O)N3CCN(c4cc(Cl)c(Cl)cn4)CC3)cc2)cc1', 'MIC', 30),
  ('NCCCNCc1ccccc1C(=O)Nc1ccc(S(=O)(=O)N2CCN(c3cc(C(F)(F)F)cc(Cl)n3)CC2)cc1', 'MIC', 2.6);
